Data origin: PubChem BioAssay AID1963849

# Test system: 299254-011-R-J1-PDC complex spheroid viability;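 note: spheroids exposed to drugs for one week before measurement; percent viability relative to DMSO vehicle control taken as 100%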
# test details: Anticancer human tumor 299254-011-R-J1-PDC patient-derived melanoma cell line growth inhibition [POLQ]; active = viability on the fitted dose curve at most 10% of control; inactive = the rest
# study conditions: second compound 1 µM; first compound 10 µM
# Experimental: Multicellular complex tumor spheroid response to Polymerase (POL) inhibitors (novobiocin, ART-558, RP6685) in combination with a variety of drugs and investigational agents in selected tumor cell lines The POL inhibitors (novobiocin, ART-558, and RP6685) were evaluated both individually and in combination with standard of care and investigational anticancer small molecules within a complex spheroid model of solid tumors. . […]
Possible outcomes: 1.0 = active, 0.0 = inactive

# compound, answer label
data = [
    ("CNCc1ccc(-c2[nH]c3cc(F)cc4c3c2CCNC4=O)cc1 + Cc1cccc(N(C)C(=O)C2C(O)CCN2c2nc(C)cc(C(F)(F)F)c2C#N)c1", 0.0),
    ("CC1COCCN1c1cc(C2(S(C)(=N)=O)CC2)nc(-c2ccnc3[nH]ccc23)n1 (stereo unspecified) + Cc1cccc(N(C)C(=O)C2C(O)CCN2c2nc(C)cc(C(F)(F)F)c2C#N)c1", 0.0),
    ("CNCc1ccc(-c2[nH]c3cc(F)cc4c3c2CCNC4=O)cc1 + Nc1ccc(C#CCN(C(=O)Cc2ncc(C(F)(F)F)cc2C(F)(F)F)c2ccc(F)cc2)nn1", 0.0),
    ("CCCS(=O)(=O)Nc1ccc(F)c(C(=O)c2c[nH]c3ncc(-c4ccc(Cl)cc4)cc23)c1F + COC1C(OC(N)=O)C(O)C(Oc2ccc3c(O)c(NC(=O)c4ccc(O)c(CC=C(C)C)c4)c(=O)oc3c2C)OC1(C)C", 0.0),
    ("COc1ccc([C@@H](O)c2cc(-c3ncnc4cc(N5CCOCC5)ccc34)c(F)cc2Cl)nn1 + COC1C(OC(N)=O)C(O)C(Oc2ccc3c(O)c(NC(=O)c4ccc(O)c(CC=C(C)C)c4)c(=O)oc3c2C)OC1(C)C", 0.0),
    ("O=c1[nH]cc(F)c(=O)[nH]1 + Nc1ccc(C#CCN(C(=O)Cc2ncc(C(F)(F)F)cc2C(F)(F)F)c2ccc(F)cc2)nn1", 0.0),
    ("CC1COCCN1c1cc(C2(S(C)(=N)=O)CC2)nc(-c2ccnc3[nH]ccc23)n1 (stereo unspecified) + COC1C(OC(N)=O)C(O)C(Oc2ccc3c(O)c(NC(=O)c4ccc(O)c(CC=C(C)C)c4)c(=O)oc3c2C)OC1(C)C", 0.0),
    ("C#Cc1c(F)ccc2cc(O)cc(-c3ncc4c(N5CC6CCC(C5)N6)nc(OCC56CCCN5CC(F)C6)nc4c3F)c12 (stereo unspecified) + COC1C(OC(N)=O)C(O)C(Oc2ccc3c(O)c(NC(=O)c4ccc(O)c(CC=C(C)C)c4)c(=O)oc3c2C)OC1(C)C", 0.0),
    ("CCCS(=O)(=O)Nc1ccc(F)c(C(=O)c2c[nH]c3ncc(-c4ccc(Cl)cc4)cc23)c1F + Cc1cccc(N(C)C(=O)C2C(O)CCN2c2nc(C)cc(C(F)(F)F)c2C#N)c1", 0.0),
    ("COc1ccc([C@@H](O)c2cc(-c3ncnc4cc(N5CCOCC5)ccc34)c(F)cc2Cl)nn1 + Nc1ccc(C#CCN(C(=O)Cc2ncc(C(F)(F)F)cc2C(F)(F)F)c2ccc(F)cc2)nn1", 0.0),
    ("CNCc1ccc(-c2[nH]c3cc(F)cc4c3c2CCNC4=O)cc1 + COC1C(OC(N)=O)C(O)C(Oc2ccc3c(O)c(NC(=O)c4ccc(O)c(CC=C(C)C)c4)c(=O)oc3c2C)OC1(C)C", 0.0),
    ("Nc1ccn(C2OC(CO)C(O)C2(F)F)c(=O)n1 (stereo unspecified) + Nc1ccc(C#CCN(C(=O)Cc2ncc(C(F)(F)F)cc2C(F)(F)F)c2ccc(F)cc2)nn1", 0.0),
    ("C=CC(=O)N1CCN(c2nc(=O)n(-c3c(C)ccnc3C(C)C)c3nc(-c4c(O)cccc4F)c(F)cc23)C(C)C1 (stereo unspecified) + COC1C(OC(N)=O)C(O)C(Oc2ccc3c(O)c(NC(=O)c4ccc(O)c(CC=C(C)C)c4)c(=O)oc3c2C)OC1(C)C", 0.0),
    ("Nc1ccn(C2OC(CO)C(O)C2(F)F)c(=O)n1 (stereo unspecified) + Cc1cccc(N(C)C(=O)C2C(O)CCN2c2nc(C)cc(C(F)(F)F)c2C#N)c1", 0.0),
    ("CCc1cc2c(N3CCc4c(cc(Cn5ccnc5)cc4-c4cn(C)nc4C(F)(F)F)C3=O)ccnc2c(OC)n1 + Nc1ccc(C#CCN(C(=O)Cc2ncc(C(F)(F)F)cc2C(F)(F)F)c2ccc(F)cc2)nn1", 0.0),
    ("COc1cc2cc(C(=O)CCC(=O)O)sc2cc1OC + COC1C(OC(N)=O)C(O)C(Oc2ccc3c(O)c(NC(=O)c4ccc(O)c(CC=C(C)C)c4)c(=O)oc3c2C)OC1(C)C", 0.0),
    ("COc1cc(C2c3cc4c(cc3C(OC3OC5COC(C)OC5C(O)C3O)C3COC(=O)C23)OCO4)cc(OC)c1O (stereo unspecified) + Cc1cccc(N(C)C(=O)C2C(O)CCN2c2nc(C)cc(C(F)(F)F)c2C#N)c1", 0.0),
    ("CC1COCCN1c1cc(C2(O)CC3CCC(C2)O3)c2cnn(-c3ccn[nH]3)c2n1 (stereo unspecified) + Cc1cccc(N(C)C(=O)C2C(O)CCN2c2nc(C)cc(C(F)(F)F)c2C#N)c1", 0.0),
    ("CCCS(=O)(=O)Nc1ccc(F)c(C(=O)c2c[nH]c3ncc(-c4ccc(Cl)cc4)cc23)c1F + Nc1ccc(C#CCN(C(=O)Cc2ncc(C(F)(F)F)cc2C(F)(F)F)c2ccc(F)cc2)nn1", 0.0),
    ("CC(C)n1c(=O)n(C)c2cnc3cc(F)c(-c4ccc(OCCCN5CCCCC5)nc4)cc3c21 + Cc1cccc(N(C)C(=O)C2C(O)CCN2c2nc(C)cc(C(F)(F)F)c2C#N)c1", 0.0),
    ("COc1cccc2c1C(=O)c1c(O)c3c(c(O)c1C2=O)CC(O)(C(=O)CO)CC3OC1CC(N)C(O)C(C)O1 (stereo unspecified) + Nc1ccc(C#CCN(C(=O)Cc2ncc(C(F)(F)F)cc2C(F)(F)F)c2ccc(F)cc2)nn1", 1.0),
]
